Data credit: paper PMC12439760

Parameter: EC50. Scope: all listed entries.
# testedTarget: hCB2 receptor (Homo sapiens)
# Sequence (P34972 whole entry): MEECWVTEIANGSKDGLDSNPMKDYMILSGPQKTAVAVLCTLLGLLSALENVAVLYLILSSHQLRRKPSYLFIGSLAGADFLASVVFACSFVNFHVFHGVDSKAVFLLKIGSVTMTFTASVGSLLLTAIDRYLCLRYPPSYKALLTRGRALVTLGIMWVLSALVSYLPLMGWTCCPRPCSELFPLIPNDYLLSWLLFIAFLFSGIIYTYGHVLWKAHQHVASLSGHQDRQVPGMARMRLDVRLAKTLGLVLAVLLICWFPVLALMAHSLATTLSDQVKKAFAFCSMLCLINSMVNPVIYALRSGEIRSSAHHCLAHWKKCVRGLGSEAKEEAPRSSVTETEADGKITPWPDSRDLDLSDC
# assayProtocol: hCB2 Gαq16-coupled calcium mobilization assay in CHO-K1 cells
# runParameters: hCB2 Ca EC50, CHO cells expressing hCB2 and Gαq16, calcium mobilization
Give a bare numeral; the unit nM is implied.

These solved cases illustrate the format of a correct answer.
NC(=O)CN1CCC[C@@H](NC(=O)c2nn(Cc3ccc(F)cc3)c3ccccc23)C1    33
NC(=O)CN1CCC[C@H](NC(=O)c2nn(Cc3ccc(F)cc3)c3ccccc23)C1    22
CC(C)(NC(=O)c1nn(Cc2ccc(F)cc2)c2ccccc12)C1CCN(C(N)=O)CC1    132
CC(F)(F)CCCn1nc(C(=O)NC(C)(C)c2cccc(C(N)=O)c2)c2ccccc21    3420
CNC(=O)C(C)(C)NC(=O)c1nn(Cc2ccc(F)cc2)c2ccccc12    21

# input Return reported EC50; argument: "CC(C)(NC(=O)c1nn(Cc2ccc(F)cc2)c2ccccc12)C(N)=O"
# output 477

# input Same lookup for "NC(=O)N1CCC[C@H](NC(=O)c2nn(Cc3ccc(F)cc3)c3ccccc23)C1" , please.
# output 59

# input Same lookup for CC1(NC(=O)c2nn(Cc3ccc(F)cc3)c3ccccc23)CCCN(CC(N)=O)C1 (stereo not drawn) , please.
# output 41

# input Same lookup for "NC(=O)c1cccc(C2(NC(=O)c3nn(Cc4ccc(F)cc4)c4ccccc34)CC2)c1" , please.
# output 96

# input Same lookup for "NC(=O)CN1CCC[C@@H](CNC(=O)c2nn(Cc3ccc(F)cc3)c3ccccc23)C1" , please.
# output 150

# input Same lookup for "CC(C)(NC(=O)c1nn(Cc2ccc(F)cc2)c2ccccc12)C(=O)N1CCC[C@H]1C(N)=O" , please.
# output 16

# input Same lookup for "NC(=O)[C@@H](NC(=O)c1nn(Cc2ccc(F)cc2)c2ccccc12)c1ccccc1" , please.
# output 42

# input Same lookup for "NC(=O)c1ccccc1CNC(=O)c1nn(Cc2ccc(F)cc2)c2ccccc12" , please.
# output 52

# input Same lookup for "CC(C)(NC(=O)c1nn(CCCCC#N)c2ccccc12)c1cccc(C(N)=O)c1" , please.
# output 760

# input Same lookup for "CC(C)[C@H](NC(=O)c1nn(Cc2ccc(F)cc2)c2ccccc12)C(=O)O" , please.
# output 516

----------
# testedTarget: hCB2 receptor (Homo sapiens)
# assayProtocol: hCB2 Gαq16-coupled calcium mobilization assay in CHO-K1 cells
# runParameters: hCB2 Ca EC50, CHO cells expressing hCB2 and Gαq16, calcium mobilization
pEC50: −log10 of the molar value.
Parameter: pEC50. Scope: all listed entries.

These solved cases illustrate the format of a correct answer.
CC(C)(NC(=O)c1nn(Cc2ccc(Cl)cc2)c2ccccc12)c1cccc(C(N)=O)c1    < 5.00
CC(C)(NC(=O)c1nn(CCc2ccc(F)cc2)c2ccccc12)c1cccc(C(N)=O)c1    < 5.00

Let's switch to this compound now.
# input Return reported pEC50; argument: "CC(C)(NC(=O)c1nn(Cc2ccc(F)cc2)c2ccccc12)C(=O)N1CCC[C@@H]1C(N)=O"
# output < 5.00
